Recorded values, source ChEMBL document CHEMBL1944560.

Tested on: A549
Assay: Antiproliferative activity against human A549 cells after 72 hrs by SRB assay
Assay type: functional
Settings: A549, 72 h
Each entry below carries its recorded GI50.

{"compound": "CCc1cc(=O)c2ccc(OC(C)C)c(CBr)c2o1", "tested-system": "A549", "GI50": "> 30.8 µM"}
{"compound": "COC(=O)c1cccc(CSc2ccc3c(C)cc(=O)oc3c2)c1", "tested-system": "A549", "GI50": "7.7 µM"}
{"compound": "CCOc1ccc2c(=O)cc(CC)oc2c1CBr", "tested-system": "A549", "GI50": "> 32.1 µM"}
{"compound": "Cc1cc(=O)oc2cc(SCc3ccccn3)ccc12", "tested-system": "A549", "GI50": "> 35.3 µM"}
{"compound": "CCc1oc2c(C)c(OC(C)C)ccc2c(=O)c1Br", "tested-system": "A549", "GI50": "> 30.8 µM"}
{"compound": "Cc1cc(=O)oc2cc(SCc3cccnc3)ccc12", "tested-system": "A549", "GI50": "> 35.3 µM"}
{"compound": "CCc1cc(=O)c2ccc(OCc3cccc(C(F)(F)F)c3)c(C)c2o1", "tested-system": "A549", "GI50": "> 27.6 µM"}
{"compound": "Cc1cc(=O)oc2cc(SC3CCOC3=O)ccc12 (centres undefined)", "tested-system": "A549", "GI50": "> 36.2 µM"}
{"compound": "CCOc1ccc2c(=O)cc(C(C)Br)oc2c1CBr (centres undefined)", "tested-system": "A549", "GI50": "19.8 µM"}
{"compound": "CCc1cc(=O)c2ccc(Sc3cccc(Cl)[n+]3[O-])c(C)c2o1", "tested-system": "A549", "GI50": "> 28.8 µM"}
{"compound": "CCc1cc(=O)c2ccc(Sc3cccc(Cl)n3)cc2o1", "tested-system": "A549", "GI50": "> 31.5 µM"}
{"compound": "CCc1cc(=O)c2ccc(OCC(C)C)c(CBr)c2o1", "tested-system": "A549", "GI50": "> 29.5 µM"}
{"compound": "CCc1oc2c(C)c(OCc3ccccc3)ccc2c(=O)c1Br", "tested-system": "A549", "GI50": "> 26.8 µM"}
{"compound": "CCc1oc2c(C)c(OCc3cccc(C(F)(F)F)c3)ccc2c(=O)c1Br", "tested-system": "A549", "GI50": "> 22.7 µM"}

----------
Measured GI50 of individual entries
Test system: A549
Assay: Antiproliferative activity against human A549 cells after 72 hrs by SRB assay
Format: functional
Details: A549, 72 h

{"compound": "CCc1cc(=O)c2ccc(Sc3cccc(Cl)n3)c(C)c2o1", "GI50": "> 30.1 µM"}
{"compound": "CCc1cc(=O)c2ccc(OC)c(CBr)c2o1", "GI50": "> 33.6 µM"}
{"compound": "COc1ccc(Br)c(CSc2ccc3c(C)cc(=O)oc3c2)c1", "GI50": "15.3 µM"}
{"compound": "Cc1cccc(CSc2ccc3c(C)cc(=O)oc3c2)c1", "GI50": "> 33.7 µM"}
{"compound": "COc1cccc(CSc2ccc3c(C)cc(=O)oc3c2)c1", "GI50": "> 32 µM"}
{"compound": "Cc1cc(=O)oc2cc(SCc3cccc(C#N)c3)ccc12", "GI50": "> 32.5 µM"}
{"compound": "CC(=O)O[C@H]1C(=O)[C@@]2(C)[C@H]([C@H](OC(=O)c3ccccc3)[C@]3(O)C[C@H](OC(=O)[C@H](O)[C@@H](NC(=O)c4ccccc4)c4ccccc4)C(C)=C1C3(C)C)[C@]1(OC(C)=O)CO[C@@H]1C[C@@H]2O", "GI50": "0.00546 µM"}
{"compound": "COc1ccc2c(=O)cc(C(C)Br)oc2c1CBr (configuration not stated)", "GI50": "> 26.6 µM"}
{"compound": "COc1cc(CSc2ccc3c(C)cc(=O)oc3c2)c([N+](=O)[O-])cc1OC", "GI50": "> 25.8 µM"}
{"compound": "CC(C)COc1ccc2c(=O)cc(C(C)Br)oc2c1CBr (configuration not stated)", "GI50": "8.71 µM"}
{"compound": "Cc1cc(=O)oc2cc(Sc3cccc(Cl)[n+]3[O-])ccc12", "GI50": "> 31.3 µM"}
{"compound": "Cc1cc(=O)oc2cc(Sc3cccc(Cl)n3)ccc12", "GI50": "2.11 µM"}
{"compound": "CCc1oc2c(C)c(OC)ccc2c(=O)c1Br", "GI50": "> 33.6 µM"}
{"compound": "COc1cc(CSc2ccc3c(C)cc(=O)oc3c2)cc(OC)c1", "GI50": "> 29.2 µM"}
{"compound": "Cc1cc(=O)oc2cc(SCc3cccc(OC(F)(F)F)c3)ccc12", "GI50": "17.4 µM"}
{"compound": "Cc1cc(=O)oc2cc(SCc3ccncc3)ccc12", "GI50": "> 35.3 µM"}
{"compound": "CCc1cc(=O)c2ccc(OCc3cccc(C)c3)c(C)c2o1", "GI50": "24.9 µM"}
{"compound": "CC(C)Oc1ccc2c(=O)cc(C(C)Br)oc2c1CBr (configuration not stated)", "GI50": "12.8 µM"}
{"compound": "Cc1cc(=O)oc2cc(SCc3cccc(C(F)(F)F)c3)ccc12", "GI50": "> 28.5 µM"}
{"compound": "CCc1cc(=O)c2ccc(Sc3cccc(Cl)[n+]3[O-])cc2o1", "GI50": "> 30 µM"}
{"compound": "CCc1cc(=O)c2ccc(OCc3ccccc3)c(C)c2o1", "GI50": "> 34 µM"}
{"compound": "CCc1cc(=O)c2ccc(OCc3cccc(C#N)c3)c(C)c2o1", "GI50": "> 31.3 µM"}
